Data origin, for the record: paper PMC6792352

Test: in vitro
Conditions: rat, gh3-tre-luc cells, AC50 (uM) modified / 1000
CC50 at 24 h values by entry

Below, 3 compounds whose answers are already recorded.
[
  {
    "compound": "CCCCCCCC/C=C\\CCCCCCCCO",
    "observed.result": "> 90 µM"
  },
  {
    "compound": "CCCCCC/C=C/C(=O)OC [Methyl (2E)-2-nonenoate]",
    "observed.result": "> 90 µM"
  },
  {
    "compound": "O=C1CCCCO1 [Tetrahydro-2H-pyran-2-one]",
    "observed.result": "> 90 µM"
  }
]

### Prompt What does the data say about its CC50 at 24 h? Entry: "C=C1[C@H](CO)[C@@H](O)C[C@@H]1n1cnc2c(=O)[nH]c(N)nc21"
### Response > 50 µM

* * *

Assay: in vitro
Conditions: rat, gh3-tre-luc cells, AC50 (uM) modified / 1000
measured.endpoint: CC50 at 24 h

[
  {
    "compound": "CN(C1CCCCC1)C1CCCCC1",
    "CC50 at 24 h": "> 90 µM"
  },
  {
    "compound": "O=C(O)c1c(Cl)ccc(Cl)c1Cl",
    "CC50 at 24 h": "> 90 µM"
  },
  {
    "compound": "CCOC(=O)C1=C(C)NC(C)=C(C(=O)OC)C1c1cccc([N+](=O)[O-])c1 (centres unmarked)",
    "CC50 at 24 h": "> 50 µM"
  },
  {
    "compound": "O=C(Cl)/C=C/C(=O)Cl [Fumaryl chloride]",
    "CC50 at 24 h": "> 90 µM"
  },
  {
    "compound": "CCCCCCCCCCCCCCN(C)C",
    "CC50 at 24 h": "> 20 µM"
  },
  {
    "compound": "C=CCOC(=O)CCCCCC [Prop-2-en-1-yl heptanoate]",
    "CC50 at 24 h": "> 90 µM"
  }
]

### Prompt Please look up its CC50 at 24 h: CN1C(=O)NC(=O)C(C)(C2=CCCCC2)C1=O (centres unmarked) [Hexobarbital]
### Response > 50 µM

### Prompt Param item = "O=CC(=O)c1ccccc1" ; retrieve measured CC50 at 24 h.
### Response > 90 µM

### Prompt Which value of CC50 at 24 h has been reported for "CCC(C)(C)OC" in the records?
### Response > 90 µM

### Prompt What does the data say about its CC50 at 24 h? Entry: "CN(C)[C@@H]1C(=O)C(C(N)=O)=C(O)[C@@]2(O)C(=O)C3=C(O)c4c(O)cccc4[C@@](C)(O)[C@H]3[C@H](O)[C@@H]12"
### Response > 90 µM

### Prompt Dear colleague, I am looking for the recorded CC50 at 24 h of the following compound: CCCCCC1C(=O)CCC1CC(=O)OC (centres unmarked) [Methyl dihydrojasmonate]
### Response > 90 µM

### Prompt Find the recorded CC50 at 24 h belonging to "O=C1C(O)=C([C@H]2CC[C@H](c3ccc(Cl)cc3)CC2)C(=O)c2ccccc21" and report it.
### Response 8.49 µM

### Prompt # CC50 at 24 h lookup, item CCSC(=O)N1CCCCCC1 [Molinate]
### Response > 90 µM

### Prompt CC50 at 24 h for "O=[N+]([O-])c1ccc2ccc3cccc4ccc1c2c34" ?
### Response > 90 µM

### Prompt # get_value(readout='CC50 at 24 h', item= "Nc1cccc(Cl)c1" )
### Response > 90 µM

### Prompt Given "COCCOC" , state its recorded CC50 at 24 h.
### Response > 90 µM

### Prompt So what does the record say about CC50 at 24 h for "CC(C)=O" ?
### Response > 90 µM
